The measurements presented in this section are drawn from patent US10221163B2.

test system: Pseudomonas aeruginosa MB9798 vs MB9799; conditions: ratio MITC95 PA_9798/MITC95 PA_9799
measured-parameter: Efflux ratio

Cc1ccc(-c2ccc(S(=O)(=O)NCCN)c(S(N)(=O)=O)c2-c2nn[nH]n2)c2nc(N)[nH]c12 [Example 329]
2.00
N[C@H]1C=C(c2ccc(S(=O)(=O)N[C@@H]3CCNC3)c(S(N)(=O)=O)c2-c2nn[nH]n2)CCC1 [Example 339]
4.00
Nc1nc2c(-c3ccc(S(=O)(=O)N[C@H]4CO[C@H]5[C@H]4OC[C@H]5O)c(S(N)(=O)=O)c3-c3nnn[nH]3)cccc2s1 [Example 50]
2.00
NS(=O)(=O)c1c(S(=O)(=O)N[C@@H]2CCNC2)ccc(-c2ccc3c(c2)C(=O)NC3)c1-c1nnn[nH]1 [Example 138]
1.00
NC[C@H](N)CNS(=O)(=O)c1ccc(-c2cnc3cc[nH]c3c2)c(-c2nn[nH]n2)c1S(N)(=O)=O [Example 373]
1.00
NCc1nc2c(-c3ccc(S(=O)(=O)N[C@H](CN)CO)c(S(N)(=O)=O)c3-c3nn[nH]n3)cccc2s1 [Example 363]
4.00
CN1CC[C@H](CNS(=O)(=O)c2ccc(-c3cccc4sc(N)nc34)c(-c3nnn[nH]3)c2S(N)(=O)=O)C1 [Example 77]
0.50
Cn1c(N)nc2c(-c3ccc(S(=O)(=O)NCCCN)c(S(N)(=O)=O)c3-c3nn[nH]n3)cccc21 [Example 183]
1.00
NCCNS(=O)(=O)c1ccc(-c2cccc3[nH]cnc23)c(-c2nn[nH]n2)c1S(N)(=O)=O [Example 199]
0.55
Nc1nc2c(-c3ccc(S(N)(=O)=O)c(S(N)(=O)=O)c3-c3nn[nH]n3)cccc2s1 [Example 143]
0.50
NCCNS(=O)(=O)c1ccc(-c2cccc(C(=O)NC[C@H](O)CN)c2)c(-c2nn[nH]n2)c1S(N)(=O)=O [Example 346]
2.00
Nc1nc2c(-c3ccc(S(=O)(=O)NC4CC5CNC4C5)c(S(N)(=O)=O)c3-c3nnn[nH]3)cccc2s1 (stereo not shown) [Example 89]
1.00
C[C@H](N)CNS(=O)(=O)c1ccc(-c2cccc3sc(N)nc23)c(-c2nnn[nH]2)c1S(N)(=O)=O.O=CO [Example 127]
1.00
Nc1nc2c(-c3ccc(S(=O)(=O)NCC4(N)CC4)c(S(N)(=O)=O)c3-c3nn[nH]n3)cccc2s1 [Example 149]
1.00
NCCNS(=O)(=O)c1ccc(-c2cccnc2N)c(-c2nn[nH]n2)c1S(N)(=O)=O [Example 358]
2.00
Nc1nc2c(-c3ccc(S(=O)(=O)NCCC4CNC4)c(S(N)(=O)=O)c3-c3nnn[nH]3)cccc2s1 [Example 30]
1.00
Nc1nc2c(-c3ccc(S(=O)(=O)NC4CC5CNC4C5)c(S(N)(=O)=O)c3-c3nnn[nH]3)cccc2s1 (stereo not shown) [Example 88]
0.50
NCCNS(=O)(=O)c1ccc(-c2cccc3cn[nH]c23)c(-c2nn[nH]n2)c1S(N)(=O)=O [Example 9]
0.50
Nc1nc2c(-c3ccc(S(=O)(=O)NC4C5CNCC54)c(S(N)(=O)=O)c3-c3nnn[nH]3)cccc2s1.O=C(O)C(F)(F)F (stereo not shown) [Example 111]
0.50
Nc1nc2c(-c3ccc(S(=O)(=O)NCC4COCCN4)c(S(N)(=O)=O)c3-c3nnn[nH]3)cccc2s1.O=C(O)C(F)(F)F (stereo not shown) [Example 96]
1.00
NCCNS(=O)(=O)c1ccc(-c2cccc3[nH]nnc23)c(-c2nn[nH]n2)c1S(N)(=O)=O [Example 236]
1.00
NCCNS(=O)(=O)c1ccc(-c2cccc(SC[C@H](O)CN)c2)c(-c2nn[nH]n2)c1S(N)(=O)=O [Example 356]
2.00
NC[C@@H](CO)NS(=O)(=O)c1ccc(-c2cccc(N)n2)c(-c2nn[nH]n2)c1S(N)(=O)=O [Example 382]
1.00
Nc1nc2c(-c3ccc(S(=O)(=O)N[C@H]4CN[C@H](CO)C4)c(S(N)(=O)=O)c3-c3nnn[nH]3)cccc2s1 [Example 78]
0.50
Nc1nc2c(-c3ccc(S(=O)(=O)NCC4(F)CNC4)c(S(N)(=O)=O)c3-c3nnn[nH]3)cccc2s1 [Example 46]
0.50
Nc1nc2c(-c3ccc(S(=O)(=O)N[C@H]4CNC[C@@H]4F)c(S(N)(=O)=O)c3-c3nnn[nH]3)cccc2s1 [Example 59]
1.00
NCCCCNS(=O)(=O)c1ccc(-c2cccc3[nH]c(N)nc23)c(-c2nn[nH]n2)c1S(N)(=O)=O [Example 258]
1.00
NCc1nc2c(-c3ccc(S(=O)(=O)NC[C@@H](O)CN)c(S(N)(=O)=O)c3-c3nn[nH]n3)cccc2[nH]1 [Example 305]
1.00
